Entries annotated with measured EC50
- measurement-target: T1, human BR3 expressed on cells (human, UniProt Q96RJ3 1-184)
- T1 construct: whole, on cells; also called BR3 on BJAB cells; cell surface BR3
- assay-notes: BJAB cells, direct binding

{"columns": ["binder", "unit-tag", "EC50"],
 "data": [
  ["Hu2.1-46 IgG (antibody, V domains shown, humanized IgG; also called h2.1-46) VH: EVQLVESGGGLVQPGGSLRLSCAASGDSITRGYWNWVRQAPGKGLEWVGYINYSGTTYYNPSLKSRFTISRDTSKNTFYLQMNSLRAEDTAVYYCANSNFYGAMDYWGQGTLVTVSS VL: DIQMTQSPSSLSASVGDRVTITCRASESVDDYGISFMHWYQQKPGKAPKLLIYRASDLESGVPSRFSGSGSGTDFTLTISSLQPEDFATYYCQQTSKDPWTFGQGTKVEIKR", "pM", 110],
  ["h9.1-73 IgG (antibody, V domains shown) VH: EVQLVESGGGLVQPGGSLRLSCAASGLPMAGFYTSWVRQAPGKGLEWVGFIRDKANGYTTEYNPSVKGRFTISADTSKNTAYLQMNSLRAEDTAVYYCAQVRRALDYWGQGTLVTVSS VL: DIQMTQSPSSLSASVGDRVTITCKSSQSLLYSSNQNNYLAWYQQKPGKAPKLLIYWAQHLDSGVPSRFSGSGSGTDFTLTISSLQPEDFATYYCQQYYTYPYTFGQGTKVEIKR", "pM", 790],
  ["V3-1m (antibody, mouse IgG2a, V domains shown, also called mV3-1; V3-1 (IgG)) VH: EVQLVESGGGLVQPGGSLRLSCAASGFTISSNSIHWVRQAPGKGLEWVAWITPSDGNTDYADSVKGRFTISADTSKNTAYLQMNSLRAEDTAVYYCARRVCYNRLGVCAGGMDYWGQGTLVTVSS VL: DIQMTQSPSSLSASVGDRVTITCRASQDVSTAVAWYQQKPGKAPKLLIYSASFLYSGVPSRFSGSGSGTDFTLTISSLQPEDFATYYCQQSRITPPTFGQGTKVEIKR", "pM", 4300],
  ["h9.1-70 IgG (antibody, V domains shown) VH: EVQLVESGGGLVQPGGSLRLSCAASDSPRSGYYISWVRQAPGKGLEWVGFIRDKANGYTTEYNPSVKGRFTISADTSKNTAYLQMNSLRAEDTAVYYCAQVRRALDYWGQGTLVTVSS VL: DIQMTQSPSSLSASVGDRVTITCKSSQSLLYSSNQNNYLAWYQQKPGKAPKLLIYWASIRDSGVPSRFSGSGSGTDFTLTISSLQPEDFATYYCQQYYTYPYTFGQGTKVEIKR", "pM", 330],
  ["V3-46s IgG (antibody, V domains shown, also called hV3-46S; HuV3-46s-IgG) VH: EVQLVESGGGLVQPGGSLRLSCAASGFTISSSSIHWVRQAPGKGLEWVAWVLPSVGFTDYADSVKGRFTISADTSKNTAYLQMNSLRAEDTAVYYCARRVCYNRLGVCAGGMDYWGQGTLVTVSS VL: DIQMTQSPSSLSASVGDRVTITCRASQDVSTAVAWYQQKPGKAPKLLIYSASFLYSGVPSRFSGSGSGTDFTLTISSLQPEDFATYYCQQSQISPPTFGQGTKVEIKR", "pM", 1800],
  ["Hu9.1-88 IgG (antibody, V domains shown, humanized IgG; also called h9.1-88) VH: EVQLVESGGGLVQPGGSLRLSCAASGFPVTGSYVSWVRQAPGKGLEWVGFIRDKANGYTTEYNPSVKGRFTISRDTSKNTLYLQMNSLRAEDTAVYYCAQVRRALDYWGQGTLVTVSS VL: DIQMTQSPSSLSASVGDRVTITCKSSQSLLYSSNQNNYLAWYQQKPGKAPKLLIYWASTRESGVPSRFSGSGSGTDFTLTISSLQPEDFATYYCQQYYTYPYTFGQGTKVEIKR", "pM", 430],
  ["chimeric 2.1 IgG (antibody, V domains shown, also called Ch 2.1 IgG; ch 2.1) VH: EVQLQESGPSLVKPSQTLSLTCSVTGDSITRGYWNWIRKFPGNKLEFMGYINYSGTTYYNPSLKSRISITRDTSKNQYYLQLNSVTTEDTATYYCATPHTYGAMDYWGQGTTLTVSA VL: DIVLTQSPVSLAVSLGQRATISCRASESVDDYGISFMHWYQQKPGQPPKLLIYRASDLESGIPARFSGSGSGTDFTLTINPVETDDVAIYYCQQTSKDPWTFGGGT", "pM", 140],
  ["Hu2.1-30 IgG (antibody, V domains shown, humanized IgG; also called h2.1-30) VH: EVQLVESGGGLVQPGGSLRLSCAASGDSITRGYWNWVRQAPGKGLEWVGYINYSGTTYYNPSLKSRFTISRDTSKNTFYLQMNSLRAEDTAVYYCANLNYYGAMDYWGQGTLVTVSS VL: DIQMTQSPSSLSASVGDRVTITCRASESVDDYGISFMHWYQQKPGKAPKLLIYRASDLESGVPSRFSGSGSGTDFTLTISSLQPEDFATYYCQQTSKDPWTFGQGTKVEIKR", "pM", 110],
  ["chimeric 9.1 IgG (antibody, V domains shown, also called Ch 9.1 IgG; ch 9.1) VH: EVKLVESGGGLVQPGGSLRLSCAISGFTVTAYYMSWVRQPPGKALEWLGFIRDKANGYTTEYNPSVKGRFTISRDNSQSIFYLQMNTLRAEDSATYYCAQVRRALDYWGQGTTVTVSA VL: DIVMSQSPSSLAVSVGEKVTMSCKSSQSLLYSSNQNNYLAWYQQKPGQSPKLLIYWASTRESGVPDRFTGSGSGTDFTLTISSVKAEDLAVYYCQQYYTYPYTFGGGT", "pM", 360]
]}
